The values you see were collected from paper PMC5540273.

Test system: PAK6;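 also: KINOMEscan kinase panel screen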
condition: concentration: 1 μM,replicates: in singlicate; n = 1
%Inh overview
Unit % implied. Number only.

Some solved entries appear below for comparison.
>>> resultvalue("C[C@@H]1CCN(C(=O)N2CCCC2)C[C@@H]1N(C)c1ncnc2[nH]ccc12")
0
>>> resultvalue("Cc1ccn2nc(-c3ccc(F)cc3)c(-c3ccncc3)c2c1.Cl")
0
>>> resultvalue("COc1ccc(Nc2nccc(N3CCC(NC(=O)c4cccc(C#N)c4)C3)n2)cc1 (stereo not shown)")
0
>>> resultvalue("COC(=O)c1cccc(NC(=O)NC2CCN(c3ccnc(Nc4cc(OC)c(OC)c(OC)c4)n3)C2)c1 (stereo not shown)")
0

Would you mind telling me what %Inh value was observed for `O=C(Nc1ccccc1)c1cccc(Oc2ccc3nccn3n2)c1` ?
9

Would you mind telling me what %Inh value was observed for `O=C1NCCc2[nH]c(-c3ccncc3)cc21` ?
17

Would you mind telling me what %Inh value was observed for `CN(c1ccccc1CNc1nc(Nc2ccc3c(c2)CC(=O)N3)ncc1C(F)(F)F)S(C)(=O)=O` ?
0

Would you mind telling me what %Inh value was observed for `Cn1ccc2ncnc(Oc3ccc(NC(=O)Nc4cncc(C(F)(F)F)c4)c(Cl)c3)c21` ?
0

Would you mind telling me what %Inh value was observed for `COc1cc2c(Nc3ccc(NC(=O)c4ccccc4)cc3)ncnc2cc1OCCCN1CCOCC1` ?
5

Would you mind telling me what %Inh value was observed for `CC(=O)Nc1ccc(-c2cc3ncnc(SCC(=O)O)c3s2)cc1` ?
0
